Data origin, for the record: ChEMBL document CHEMBL5143521

Study Target: Serine/threonine-protein kinase PLK1 (Homo sapiens)
Sequence (P53350 whole entry): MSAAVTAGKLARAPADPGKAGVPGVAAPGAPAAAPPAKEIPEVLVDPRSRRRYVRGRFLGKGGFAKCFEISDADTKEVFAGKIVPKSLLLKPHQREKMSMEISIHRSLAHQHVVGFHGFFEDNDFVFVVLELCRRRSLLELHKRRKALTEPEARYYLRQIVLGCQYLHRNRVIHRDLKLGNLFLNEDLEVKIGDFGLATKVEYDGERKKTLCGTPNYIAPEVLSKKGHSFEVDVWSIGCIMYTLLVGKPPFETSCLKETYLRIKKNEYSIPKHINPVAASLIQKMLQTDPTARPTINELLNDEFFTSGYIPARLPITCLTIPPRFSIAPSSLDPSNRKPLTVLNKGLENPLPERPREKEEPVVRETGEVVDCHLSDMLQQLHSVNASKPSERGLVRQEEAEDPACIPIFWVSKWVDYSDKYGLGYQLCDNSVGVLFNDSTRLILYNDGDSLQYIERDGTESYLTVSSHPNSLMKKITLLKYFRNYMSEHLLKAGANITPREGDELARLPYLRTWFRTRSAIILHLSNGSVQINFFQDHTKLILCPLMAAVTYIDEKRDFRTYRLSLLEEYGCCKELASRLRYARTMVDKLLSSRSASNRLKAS
Experiment Summary: Inhibition of recombinant full length human PLK1 using casein as substrate incubated for 40 mins in presence of [gamma-33P]-ATP by radiometric scintillation counting method
IC50 values by entry
Just the number please, in nM, no unit attached.

A selection of reference data follows.
compound="CC[C@@H]1c2nnc(C)n2-c2cnc(Nc3ccc(C(=O)NC4CCN(C(=O)CCCCNc5cccc6c5CN(C5CCC(=O)NC5=O)C6=O)CC4)cc3OC)nc2N1CC1CCCCC1 (stereo partly drawn)" uom=nM result=1340
compound="CC[C@@H]1c2nnc(C)n2-c2cnc(Nc3ccc(C(=O)NC4CCN(C(=O)COc5cccc6c5C(=O)N(C5CCC(=O)NC5=O)C6=O)CC4)cc3OC)nc2N1CC1CCCCC1 (stereo partly drawn)" uom=nM result=985

Consider now this further compound.
Look up and report IC50, with Serine/threonine-protein kinase PLK1 (Homo sapiens) as system, for CC[C@@H]1c2nnc(C)n2-c2cnc(Nc3ccc(C(=O)NC4CCN(CCCCCCCCCOc5cccc6c5C(=O)N(C5CCC(=O)NC5=O)C6=O)CC4)cc3OC)nc2N1CC1CCCCC1 (stereo partly drawn) 2130
